log10 EC50 reference
Molecular target: human TLR7 (Homo sapiens (Human), UniProt Q9NYK1)
Sequence (Q9NYK1 27-1049): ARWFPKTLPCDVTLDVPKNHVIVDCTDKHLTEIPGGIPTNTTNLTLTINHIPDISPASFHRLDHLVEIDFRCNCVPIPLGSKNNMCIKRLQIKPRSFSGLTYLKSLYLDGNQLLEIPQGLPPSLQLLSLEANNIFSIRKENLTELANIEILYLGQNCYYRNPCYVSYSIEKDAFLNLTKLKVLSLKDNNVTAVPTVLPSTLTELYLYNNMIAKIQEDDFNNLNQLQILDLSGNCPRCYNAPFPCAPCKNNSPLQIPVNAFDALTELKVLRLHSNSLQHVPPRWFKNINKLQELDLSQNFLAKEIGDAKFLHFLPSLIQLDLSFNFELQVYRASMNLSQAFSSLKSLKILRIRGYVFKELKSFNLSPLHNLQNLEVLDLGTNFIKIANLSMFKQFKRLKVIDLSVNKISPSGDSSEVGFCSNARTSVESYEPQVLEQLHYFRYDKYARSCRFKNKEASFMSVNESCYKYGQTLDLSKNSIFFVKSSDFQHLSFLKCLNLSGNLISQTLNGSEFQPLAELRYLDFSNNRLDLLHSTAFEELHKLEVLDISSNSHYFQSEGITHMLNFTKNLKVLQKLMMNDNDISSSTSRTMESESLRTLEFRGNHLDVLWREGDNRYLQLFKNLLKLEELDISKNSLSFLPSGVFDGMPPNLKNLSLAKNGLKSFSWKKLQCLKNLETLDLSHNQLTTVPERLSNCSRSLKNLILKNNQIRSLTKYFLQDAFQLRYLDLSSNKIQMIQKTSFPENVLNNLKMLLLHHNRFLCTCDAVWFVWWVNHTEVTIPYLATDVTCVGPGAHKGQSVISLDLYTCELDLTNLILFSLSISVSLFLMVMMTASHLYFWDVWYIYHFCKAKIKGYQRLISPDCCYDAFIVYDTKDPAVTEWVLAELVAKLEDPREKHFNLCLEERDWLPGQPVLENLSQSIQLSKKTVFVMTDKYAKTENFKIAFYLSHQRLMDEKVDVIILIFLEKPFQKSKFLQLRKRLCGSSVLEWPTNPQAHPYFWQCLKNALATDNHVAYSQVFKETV
Experiment: HEK293 NFKB reporter assay, human TLR7
Type: cell-based
Settings: HEK293 reporter cells expressing human TLR7; read-out: HEK293 hTLR7 EC50
Parameter value (number): base-10 log of EC50 in µM.

**Query** Requested read-out: log10 EC50. Entry: `CCCN(CCO)C(=O)C1=Cc2ccc(-c3cccc(S(=O)(=O)N4CC(CN)C4)c3)cc2N=C(N)C1`
**Result** 0.95

###

Target: human TLR7 (Homo sapiens (Human), UniProt Q9NYK1)
Assay: HEK293 NFKB reporter assay, human TLR7
Conditions: HEK293 reporter cells expressing human TLR7; read-out: HEK293 hTLR7 EC50
QUANTITY KIND: EC50 (µM)
Express the result in µM but write the number alone.

A selection of reference data follows.
[[record]]
compound = "CCCN(OCC)C(=O)C1=Cc2ccc(-c3cc(CN)ncn3)cc2N=C(N)C1"
unit_of_measure = "µM"
quantitative_result = 9

[[record]]
compound = "CCCN(CCCO)C(=O)C1=Cc2ccc(-c3cccc(S(=O)(=O)N4CC(CNC(=O)OC(C)(C)C)C4)c3)cc2N=C(N)C1"
unit_of_measure = "µM"
quantitative_result = 7.15

[[record]]
compound = "CCCN(OCC)C(=O)C1=Cc2ccc(-c3ccc(C(=O)N[C@@H](C)C(=O)OC(C)(C)C)cc3)cc2N=C(N)C1"
unit_of_measure = "µM"
quantitative_result = 1.92

[[record]]
compound = "CCCN(OCCO)C(=O)C1=Cc2ccc(-c3cncc(S(=O)(=O)N4CC(CN)C4)c3)cc2N=C(N)C1"
unit_of_measure = "µM"
quantitative_result = 9

[[record]]
compound = "CCCN(OCC(F)(F)F)C(=O)C1=Cc2ccc(-c3cccc(S(=O)(=O)N4CC(CN)C4)c3)cc2N=C(N)C1"
unit_of_measure = "µM"
quantitative_result = 3.93

[[record]]
compound = "CCCN(CCCNC(N)=O)C(=O)C1=Cc2ccc(-c3cccc(S(=O)(=O)N4CC(CN)C4)c3)cc2N=C(N)C1"
unit_of_measure = "µM"
quantitative_result = 9

[[record]]
compound = "CCCN(OCC)C(=O)C1=Cc2ccc(-c3ccc(C(=O)N4CCC[C@H]4C(=O)OC)cc3)cc2N=C(N)C1"
unit_of_measure = "µM"
quantitative_result = 0.047

[[record]]
compound = "CCCN(CCCO)C(=O)C1=Cc2ccc(-c3cccc(S(=O)(=O)N4CC(CN)C4)c3)cc2N=C(N)C1"
unit_of_measure = "µM"
quantitative_result = 9


**Query** Requested read-out: EC50. Entry: `CCCN(CCCO)C(=O)C1=Cc2ccc(-c3cnc(CN)nc3)cc2N=C(N)C1`
**Result** 9

**Query** Request: `CCCN(OCC)C(=O)C1=Cc2ccc(-c3ccc(C(=O)N[C@H](C)C(=O)OC(C)(C)C)cc3)cc2N=C(N)C1`
**Result** 4.75

###

pEC50 reference
Biological target: human TLR7 (Homo sapiens (Human))
Assay: HEK293 NFKB reporter assay, human TLR7
Details: HEK293 reporter cells expressing human TLR7; read-out: HEK293 hTLR7 EC50
For clarity, pEC50 is expressed as the negative log10 of concentration in mol/L.

A selection of reference data follows.
[[record]]
molecule = "CCCN(OCCNC(=O)NC1COC1)C(=O)C1=Cc2ccc(-c3cnc(CN)nc3)cc2N=C(N)C1"
quantity_kind = "pEC50"
quantitative_result = 5.05

[[record]]
molecule = "CCCN(OCC)C(=O)C1=Cc2ccc(-c3ccc(C(=O)N4CCCC4)cc3)cc2N=C(N)C1"
quantity_kind = "pEC50"
quantitative_result = 5.52

[[record]]
molecule = "CCCN(CCCCO)C(=O)C1=Cc2ccc(-c3cccc(S(=O)(=O)N4CC(CN)C4)c3)cc2N=C(N)C1"
quantity_kind = "pEC50"
quantitative_result = 5.05

[[record]]
molecule = "CCCN(OCC)C(=O)C1=Cc2ccc(-c3ccc(C(=O)N4CCC[C@@H]4C(=O)OC)cc3)cc2N=C(N)C1"
quantity_kind = "pEC50"
quantitative_result = 5.46

[[record]]
molecule = "CCCN(CCCNC(=O)OC1CCC1)C(=O)C1=Cc2ccc(-c3cccc(S(=O)(=O)N4CC(CN)C4)c3)cc2N=C(N)C1"
quantity_kind = "pEC50"
quantitative_result = 5.64


**Query** Requested read-out: pEC50. Entry: CCCN(OCC)C(=O)C1=Cc2ccc(-c3ccc(C(=O)N4CCC(NC(=O)OC(C)(C)C)C4)cc3)cc2N=C(N)C1 (stereo not drawn)
**Result** 5.43

**Query** Request: CCCN(OCC)C(=O)C1=Cc2ccc(-c3ccc(C(=O)N4CCC(N)C4)cc3)cc2N=C(N)C1 (stereo not drawn)
**Result** 5.51

**Query** Request: CCCN(CC1CNC(=O)CO1)C(=O)C1=Cc2ccc(-c3cnc(CN)nc3)cc2N=C(N)C1 (stereo not drawn)
**Result** 5.05

**Query** Request: `CCCN(OCC)C(=O)C1=Cc2ccc(-c3ccc(C(=O)OC)cc3)cc2N=C(N)C1`
**Result** 5.24

**Query** Request: CCCN(OCC1COC(=O)N1)C(=O)C1=Cc2ccc(-c3cnc(CN)nc3)cc2N=C(N)C1 (stereo not drawn)
**Result** 5.05

**Query** Request: `CCCN(OCCNC(=O)OC1CCC1)C(=O)C1=Cc2ccc(-c3cccc(S(=O)(=O)N4CC(CN)C4)c3)cc2N=C(N)C1`
**Result** 6.13

**Query** Request: CCCN(CC1CNC(=O)O1)C(=O)C1=Cc2ccc(-c3cnc(CN)nc3)cc2N=C(N)C1 (stereo not drawn)
**Result** 5.05

**Query** Request: `CCCN(OCC)C(=O)C1=Cc2ccc(-c3ncc(CN)cn3)cc2N=C(N)C1`
**Result** 5.05

**Query** Request: `CCCN(OCC)C(=O)C1=Cc2ccc(-c3cccc(S(=O)(=O)N4CC(CNC(=O)C5CCNCC5)C4)c3)cc2N=C(N)C1`
**Result** 5.05

**Query** Request: `CCCN(C(=O)C1=Cc2ccc(-c3cnc(CN)nc3)cc2N=C(N)C1)[C@H]1C[C@H](NC(=O)OC2CCC2)C1`
**Result** 5.05

Each recorded value in this set is attributed to patent US20240033370A1.
